# Study Target: Cytochrome P450 1A2 (Homo sapiens)
# Assay Text: Cytochrome panel assay with activity outcomes
# Stated Conditions: recombinant CYP, pro-luciferin dealkylation, luminescence, p450-cyp1a2; series mostly up to 57.1 µM
Screen size: about 16,000 compounds; about 5,700 (36%) were called active. About 24% were inconclusive and are not listed. Calls follow the shape of the dose curve; as a rule, active = well fitted curve in the direction sought with a large enough effect; inconclusive = small, poorly fitted or top-dose-only effect, or effect the other way; inactive = no such curve, though single readings can be large or run the other way. Some of the results follow.
Write down the outcome that applies. Available outcomes: TRUE for active, FALSE for inactive

Completed entries (count: 3):
* Brc1ccccc1OCCOCCOc1cccc2cccnc12 | TRUE
* Cc1cccc(C(=O)N/N=C/c2ccc(OCC(=O)N3CCCCC3)cc2)c1 | FALSE
* Cc1ccc(OCCCOc2cccc3cccnc23)cc1C | TRUE

Hello, I am checking results. What call was entered for `CCOC(=O)c1ccc(N)cc1` ?
TRUE

Recorded test call requested for `O=C(c1csnn1)N1CCC2(CCN(Cc3nccs3)CC2)CC1`
FALSE
